target: FL-SMARCA4 (Homo sapiens, UniProt P51532); test: SMARCA4 ATPase activity assay (ADP-Glo, chicken mononucleosome substrate); conditions: FL-SMARCA4 IC>50, Table 3c.2; ATPase assay, enzyme 5 nM, ATP 250 uM, chicken mononucleosome 10 nM, 30 min preincubation
Sequence (P51532 whole entry): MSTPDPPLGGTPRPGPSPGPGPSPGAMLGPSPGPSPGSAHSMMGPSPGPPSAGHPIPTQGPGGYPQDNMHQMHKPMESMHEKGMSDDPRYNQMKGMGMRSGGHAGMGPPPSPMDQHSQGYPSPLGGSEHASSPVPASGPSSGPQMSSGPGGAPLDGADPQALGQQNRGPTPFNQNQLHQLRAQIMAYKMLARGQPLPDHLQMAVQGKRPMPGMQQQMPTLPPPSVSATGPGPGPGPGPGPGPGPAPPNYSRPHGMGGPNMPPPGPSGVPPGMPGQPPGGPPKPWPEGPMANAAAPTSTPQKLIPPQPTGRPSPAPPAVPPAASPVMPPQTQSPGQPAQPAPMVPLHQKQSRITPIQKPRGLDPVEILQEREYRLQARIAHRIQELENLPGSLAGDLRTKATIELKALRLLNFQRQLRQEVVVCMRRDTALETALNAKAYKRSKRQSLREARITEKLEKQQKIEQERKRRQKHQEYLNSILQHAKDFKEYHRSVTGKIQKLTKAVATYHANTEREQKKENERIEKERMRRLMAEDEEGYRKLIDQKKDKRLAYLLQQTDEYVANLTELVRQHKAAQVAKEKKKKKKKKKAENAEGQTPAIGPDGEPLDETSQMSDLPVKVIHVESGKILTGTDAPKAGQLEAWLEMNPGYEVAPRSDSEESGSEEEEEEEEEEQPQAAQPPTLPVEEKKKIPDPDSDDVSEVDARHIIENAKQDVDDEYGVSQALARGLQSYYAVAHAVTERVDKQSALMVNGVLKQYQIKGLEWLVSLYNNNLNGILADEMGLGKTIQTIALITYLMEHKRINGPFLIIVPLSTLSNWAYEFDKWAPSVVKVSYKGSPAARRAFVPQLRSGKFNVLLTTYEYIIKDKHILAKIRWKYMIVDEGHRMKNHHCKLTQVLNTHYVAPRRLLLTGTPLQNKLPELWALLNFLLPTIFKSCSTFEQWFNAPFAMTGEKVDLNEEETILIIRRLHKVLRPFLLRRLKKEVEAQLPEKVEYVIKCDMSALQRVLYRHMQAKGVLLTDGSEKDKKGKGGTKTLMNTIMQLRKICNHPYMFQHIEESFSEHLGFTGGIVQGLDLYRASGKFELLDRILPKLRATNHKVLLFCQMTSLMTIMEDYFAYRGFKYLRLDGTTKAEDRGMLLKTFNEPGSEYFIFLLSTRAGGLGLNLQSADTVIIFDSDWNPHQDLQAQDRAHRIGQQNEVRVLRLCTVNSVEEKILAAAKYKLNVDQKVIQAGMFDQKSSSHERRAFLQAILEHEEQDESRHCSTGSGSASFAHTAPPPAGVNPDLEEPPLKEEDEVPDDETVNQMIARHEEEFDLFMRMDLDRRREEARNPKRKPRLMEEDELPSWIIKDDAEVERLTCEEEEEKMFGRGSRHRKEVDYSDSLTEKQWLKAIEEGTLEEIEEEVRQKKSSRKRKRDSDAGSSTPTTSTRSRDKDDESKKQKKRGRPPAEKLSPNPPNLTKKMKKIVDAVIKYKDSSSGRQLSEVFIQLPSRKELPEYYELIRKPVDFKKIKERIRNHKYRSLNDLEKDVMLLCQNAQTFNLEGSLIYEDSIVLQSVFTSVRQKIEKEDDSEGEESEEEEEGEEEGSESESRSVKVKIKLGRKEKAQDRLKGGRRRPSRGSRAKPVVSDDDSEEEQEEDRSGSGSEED
MEASURED ENDPOINT: IC50 (nM)

I: O=C1CC(C#Cc2cc(C(=O)Nc3cc(F)c(=O)n(CC(F)F)c3)sc2Cl)CCN1 (stereo not shown) [Compound 105c]
II: O=C1Cc2c(C#Cc3cc(C(=O)Nc4cc(F)c(=O)n(CC(F)F)c4)sc3Cl)cccc2N1 [Compound 142c]
III: O=C(Nc1cc(F)c(=O)n(CC(F)F)c1)c1cc(C#CC2CN(CC(F)(F)F)C2)c(Cl)s1 [Compound 69c]
IV: O=C(Nc1cc(F)c(=O)n(CC(F)F)c1)c1cc(C#Cc2cccc(CO)c2)c(Cl)s1 [Compound 138c]
V: CS(=O)(=O)c1cccc(C#Cc2cc(C(=O)Nc3cc(F)c(=O)n(CC(F)F)c3)sc2Cl)c1 [Compound 98c]
Rank the items in ascending order with respect to IC50. Rank them, then answer with their labels in that order.
IV, II, I, V, III
(IV: 65.7 nM, II: 119 nM, I: 172 nM, V: 287 nM, III: 3770 nM)

----------
target: FL-SMARCA4 (Homo sapiens, UniProt P51532); assay: SMARCA4 ATPase activity assay (ADP-Glo, chicken mononucleosome substrate); settings: FL-SMARCA4 IC50
MEASURED ENDPOINT: IC50

Take a look at these entries with their results.
{"MOLECULE": "CN(C)C(=O)c1cc(C(=O)Nc2cc(F)c(=O)n(CC(F)F)c2)sc1C(F)(F)F [Compound 36d]", "IC50": "> 50 µM"}
{"MOLECULE": "O=C(Nc1cc(F)c(=O)n(CC(F)F)c1)c1cc(-c2ccco2)on1 [Compound 124d]", "IC50": "> 50 µM"}

Now for the molecule whose IC50 we want.
For FL-SMARCA4 (Homo sapiens, UniProt P51532), provide IC50 of CCn1c(C)c(NC(=O)c2cc(Cl)c(Cl)s2)ccc1=O [Compound 25d] please.
> 50 µM

----------
molecular target: FL-SMARCA2 (full-length human SMARCA2 isoform 1) (Homo sapiens, UniProt P51531); construct: FLAG tag (YKDDDDK) (C); made in house; host or cells: Sf21 insect cells (baculovirus, pFastBacI); assay: SMARCA2 ATPase activity assay (ADP-Glo, chicken mononucleosome substrate); type: biochemical; settings: Table 3d.1; ATPase assay, enzyme 5 nM, ATP 250 uM, chicken mononucleosome 10 nM, 30 min preincubation; read-out: FL-SMARCA2 IC>50
Sequence (P51531 with tags, fused parts or gaps): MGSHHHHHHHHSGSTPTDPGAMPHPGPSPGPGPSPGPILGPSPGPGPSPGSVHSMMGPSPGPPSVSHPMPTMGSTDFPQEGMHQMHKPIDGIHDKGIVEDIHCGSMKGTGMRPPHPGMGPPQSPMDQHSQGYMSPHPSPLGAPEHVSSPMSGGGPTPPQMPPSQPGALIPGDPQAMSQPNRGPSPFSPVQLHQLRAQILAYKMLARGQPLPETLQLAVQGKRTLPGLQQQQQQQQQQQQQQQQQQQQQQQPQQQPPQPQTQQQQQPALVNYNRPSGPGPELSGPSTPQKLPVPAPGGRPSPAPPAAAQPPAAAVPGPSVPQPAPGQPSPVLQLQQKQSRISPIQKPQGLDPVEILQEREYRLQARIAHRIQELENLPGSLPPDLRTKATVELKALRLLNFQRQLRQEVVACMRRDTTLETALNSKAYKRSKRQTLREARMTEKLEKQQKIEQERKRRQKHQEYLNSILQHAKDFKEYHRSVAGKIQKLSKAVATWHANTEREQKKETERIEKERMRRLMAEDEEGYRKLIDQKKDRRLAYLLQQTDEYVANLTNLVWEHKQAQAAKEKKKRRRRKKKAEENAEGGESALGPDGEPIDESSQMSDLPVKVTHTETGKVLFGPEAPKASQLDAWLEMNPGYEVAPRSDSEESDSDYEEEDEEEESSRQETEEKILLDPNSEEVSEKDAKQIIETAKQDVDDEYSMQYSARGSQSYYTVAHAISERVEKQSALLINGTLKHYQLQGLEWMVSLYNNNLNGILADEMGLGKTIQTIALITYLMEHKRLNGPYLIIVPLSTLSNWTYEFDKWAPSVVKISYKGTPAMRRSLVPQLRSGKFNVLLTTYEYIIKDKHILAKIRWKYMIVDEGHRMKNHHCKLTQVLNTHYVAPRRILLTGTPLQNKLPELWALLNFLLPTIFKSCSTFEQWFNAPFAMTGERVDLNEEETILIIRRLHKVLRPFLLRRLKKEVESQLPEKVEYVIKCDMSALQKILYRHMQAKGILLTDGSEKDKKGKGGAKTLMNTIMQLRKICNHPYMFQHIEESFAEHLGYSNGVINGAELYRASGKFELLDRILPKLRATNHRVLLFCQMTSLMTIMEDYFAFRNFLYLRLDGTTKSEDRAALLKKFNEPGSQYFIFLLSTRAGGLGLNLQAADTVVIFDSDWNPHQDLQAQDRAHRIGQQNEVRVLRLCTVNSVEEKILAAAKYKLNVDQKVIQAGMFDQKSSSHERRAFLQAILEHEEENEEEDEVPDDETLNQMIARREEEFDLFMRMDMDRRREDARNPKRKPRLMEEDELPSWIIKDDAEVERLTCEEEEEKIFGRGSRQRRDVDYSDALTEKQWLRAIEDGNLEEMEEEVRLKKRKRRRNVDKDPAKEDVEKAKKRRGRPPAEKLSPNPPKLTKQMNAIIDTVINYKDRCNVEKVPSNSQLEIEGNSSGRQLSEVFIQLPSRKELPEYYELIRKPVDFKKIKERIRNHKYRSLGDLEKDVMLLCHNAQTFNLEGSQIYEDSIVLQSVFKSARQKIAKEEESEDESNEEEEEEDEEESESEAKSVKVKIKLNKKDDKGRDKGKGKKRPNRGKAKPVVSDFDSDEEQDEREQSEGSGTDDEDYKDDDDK
pIC50: −log10 of the molar value.
MEASURED ENDPOINT: pIC50

P: O=C(Nc1cc(F)c(=O)n(CC(F)F)c1)c1cc(C#CC(F)(F)F)c(Cl)s1 [Compound 74d]
Q: N#Cc1ncc(C#Cc2cc(C(=O)Nc3cc(F)c(=O)n(CC(F)F)c3)sc2Cl)o1 [Compound 100d]
R: CN(C)C(=O)c1cc(C(=O)Nc2cc(F)c(=O)n(CC(F)F)c2)sc1C(F)(F)F [Compound 36d]
Rank the items in ascending order with respect to pIC50. Rank them, then answer with their labels in that order.
R, P, Q

----------
target: FL-SMARCA4 (Homo sapiens, UniProt P51532); assay: SMARCA4 ATPase activity assay (ADP-Glo, chicken mononucleosome substrate); details: FL-SMARCA4 IC>50, Table 3c.2; ATPase assay, enzyme 5 nM, ATP 250 uM, chicken mononucleosome 10 nM, 30 min preincubation
pIC50: −log10 of the molar value.
MEASURED ENDPOINT: pIC50

Take a look at these entries with their results.
{"COMPOUND": "NCCCn1cc(NC(=O)c2cc(F)c(Cl)s2)cc(F)c1=O [Compound 28c]", "TARGET": "FL-SMARCA4 (Homo sapiens, UniProt P51532)", "pIC50": "< 4.30"}
{"COMPOUND": "N#Cc1sc(C(=O)Nc2cc(F)c(=O)n(CC(F)F)c2)cc1C#CC1COC1 [Compound 93c]", "TARGET": "FL-SMARCA4 (Homo sapiens, UniProt P51532)", "pIC50": "< 4.30"}
{"COMPOUND": "O=C(Nc1ccc(=O)n(CC(F)F)c1)c1sc(C(F)(F)F)cc1Cl [Compound 46c]", "TARGET": "FL-SMARCA4 (Homo sapiens, UniProt P51532)", "pIC50": "< 4.30"}

For FL-SMARCA4 (Homo sapiens, UniProt P51532), provide pIC50 of O=C(Nc1cc(CO)c(=O)n(CC(F)F)c1)c1cc(F)c(Cl)s1 [Compound 12c] please.
< 4.30

----------
molecular target: FL-SMARCA4 (Homo sapiens, UniProt P51532); assay: SMARCA4 ATPase activity assay (ADP-Glo, chicken mononucleosome substrate); conditions: FL-SMARCA4 IC>50, Table 3c.2; ATPase assay, enzyme 5 nM, ATP 250 uM, chicken mononucleosome 10 nM, 30 min preincubation
MEASURED ENDPOINT: IC50

So what does the record say about IC50 for Cn1ccc(-c2cc(NC(=O)c3sc(C(F)(F)F)cc3Cl)cn(CC(F)F)c2=O)n1 [Compound 19c] ?
> 50 µM

Same again, this time with CNCCn1cc(NC(=O)c2cc(F)c(Cl)s2)cc(F)c1=O [Compound 52c]
> 50 µM

Same again, this time with Cn1nccc1-c1cc(NC(=O)c2cc(Cl)c(C(F)(F)F)s2)cn(CC(F)F)c1=O [Compound 13c]
> 50 µM

Same again, this time with O=C(Nc1cc(F)c(=O)n(CC(F)F)c1)[C@@H]1CCCN1 [Compound 15c]
> 50 µM

Same again, this time with Cn1ccnc1-c1cc(NC(=O)c2cc(Cl)c(C(F)(F)F)s2)cn(CC(F)F)c1=O [Compound 88c]
> 50 µM

Data origin: patent US20220356174A1
